# method description: Clearance in rat at 0.65 mg/kg, iv
# Format: ADME, organism-based
# Set-up: dose 0.65 mg/kg, route intravenous
# reported conditions: in vivo
observable: clearance (mL/min/kg)
Numbers only here, please. The scale is mL/min/kg.

// query clearance lookup needed for `C[C@H](c1nc2c(C3CC3)nccn2c1-c1ccc(C#N)cc1)N(CC1CCS(=O)(=O)CC1)C(=O)Cc1ccc(C(F)(F)F)c(F)c1` , thanks.
// result 16.7

---

# method description: Mean residence time in mouse at 1.66 mg/kg, iv
# Assay type: ADME, organism-based
# Design: dose 1.66 mg/kg, route intravenous
# reported conditions: in vivo
observable: MRT (h)
Numbers only here, please. The scale is h.

// query MRT lookup needed for `C[C@H](c1nc2c(C3CC3)nccn2c1-c1ccc(C#N)cc1)N(CC1CCS(=O)(=O)CC1)C(=O)Cc1ccc(C(F)(F)F)c(F)c1` , thanks.
// result 1.4
